B1: Clover-AZIN (antizyme inhibitor with an N-terminal Clover tag) [human] / antizyme-mRuby2 (antizyme with a C-terminal mRuby2 tag) [human] (parent complex)
chain 1: MKGFIDDANYSVGLLDEGTNLGNVIDNYVYEHTLTGKNAFFVGDLGKIVKKHSQWQNVVAQIKPFYTVKCNSAPAVLEILAALGTGFACSSKNEMALVQELGVPPENIIYISPCKQVSQIKYAAKVGVNILTCDNEIELKKIARNHPNAKVLLHIATEDNIGGEEGNMKFGTTLKNCRHLLECAKELDVQIIGVKFHVSSACKESQVYVHALSDARCVFDMAGEIGFTMNMLDIGGGFTGTEFQLEEVNHVISPLLDIYFPEGSGVKIISEPGSYYVSSAFTLAVNIIAKKVVENDKFPSGVEKTGSDEPAFMYYMNDGVYGSFASKLSEDLNTIPEVHKKYKEDEPLFTSSLWGPSCDELDQIVESCLLPELNVGDWLIFDNMGADSFHEPSAFNDFQRPAIYYMMSFSDWYEMQDAGITSDSMMKNFFFVPSCIQLSQEDSFSAEA
chain 2: not shown

# Variants of: B1
# testSummary: FRET titration; parent: 24 nM; read off a plot
reportedMetric: Kd

// Kd value for chain 1 S118A : ~15 nM

Reported Kd for chain 1 K63A was ~23 nM

Record summary for chain 1 F170A : reported Kd = ~27 nM

Kd for chain 1 S367A is ~39 nM

Looking up chain 1 E366A , I see its Kd listed as ~31 nM

For this variant ( chain 1 C114A ), measured Kd is ~28 nM

Notebook: chain 1 D214A , Kd read as ~27 nM
